- Tested on: EKVX NSCLC
- Experiment description: NCI tumour cell line growth inhibition, 48 h
Readout kind: TGI

The following compounds have reported results that may help.
O=c1c2cc(Br)ccc2nc(CNc2ccccc2)n1-c1ccccc1 : 40.7 µM
O=[N+]([O-])c1ccc(/C=C/c2ccc(/C=C/c3ccc([N+](=O)[O-])cc3[N+](=O)[O-])cc2)c([N+](=O)[O-])c1 : > 100 µM

Which measured TGI value corresponds to O=c1c(-c2ccccc2)c(SCCCN2CCCCC2)n(-c2ccccc2)c(=S)n1-c1ccccc1 ?
> 100 µM

Queued: Cc1cc2nnn(C3CCCCO3)c2cc1C (centres undefined)
> 100 µM

----------
- System: HOP-92 NSCLC
- Experiment description: NCI tumour cell line growth inhibition, 48 h
Readout kind: GI50

The following compounds have reported results that may help.
CC(=O)O[C@H]([C@H](OC(C)=O)[C@H](C)OC(C)=O)[C@@H](/C=C/[C@H]1CC=CC(=O)O1)OC(C)=O : 23.5 µM
CCCCCCCCCCCCOC1C(C(COC2OC(C(O)CO)C3OC(C)(C)OC23)OC(=O)Nc2ccccc2)OC2OC(C)(C)OC21 (centres undefined) : 7.29 µM

Next:
Which measured GI50 value corresponds to O=C1c2ccccc2-c2c1c1c(O)cccc1n2Cc1ccccc1 ?
4.22 µM

----------
Below, each entry is listed with its recorded TGI.
- Test system: A498 renal
- Experiment description: NCI tumour cell line growth inhibition, 48 h
The figure you give is taken to be in µM; do not add the unit.

C#CCCCCCC(=O)N[C@H]1C=C[C@@H]2/C=C(C)/C=C/[C@@H](C)[C@H]([C@H](C)[C@H](O)[C@@H](C)NC(C)=O)OC(=O)/C=C/C=C(C)\C=C\[C@]2(C)C1 : 0.0383
Oc1c(Br)cc(Cl)cc1C(c1cc(Cl)cc(Br)c1O)C(Cl)(Cl)Cl : 8.24

Next:
Field: TGI (A498 renal). Entry: COC1=CC(=O)C(O)=C(CC2(C)C(C)CCC3(C)C2CCCC3(C)C)C1=O (centres undefined)
22.1

----------
- Tested on: K-562 leukemia
- Experiment description: NCI tumour cell line growth inhibition, 48 h; in the data active = GI50 below about 0.43 µM; inactive = the rest
Give your call using only these classes: active, inactive

CC1=C(C(=O)Nc2ccc3[nH]ncc3c2)C(c2ccc(F)cc2)N=C(c2ccc(C(F)(F)F)nc2)N1 (centres undefined) : inactive
C=CCN(CC=C)Cc1c[nH]c2ccccc12 : inactive
CCCCCCCCCCCCOC1C(C(COC2OC(C(O)CO)C3OC(C)(C)OC23)OC(=O)Nc2ccccc2)OC2OC(C)(C)OC21 (centres undefined) : inactive

Test call, this compound: CN(C)[C@@H]1C(=O)C(C(=O)NCc2nc3[nH]cnc(=S)c3[nH]2)=C(O)[C@@]2(O)C(=O)C3=C(O)c4c(O)cccc4[C@@](C)(O)[C@H]3C[C@@H]12
inactive

Queued: COc1cc2c3c(n(CCCN)c(=O)c2cc1OC)-c1ccc(N)cc1C3=O
active

Queued: CNCc1cccc2c1OCCOCCOCCNS(=O)(=O)c1ccc(cc1)-c1cnc(N)c(n1)C(=O)N2
inactive

Queued: CC(C)c1ccc2c(c1)CCC1C2CCCC1(C)NCc1ccccc1 (centres undefined)
inactive

Queued: C#CCCCCCC(=O)N[C@H]1C=C[C@@H]2/C=C(C)/C=C/[C@@H](C)[C@H]([C@H](C)[C@H](O)[C@@H](C)NC(C)=O)OC(=O)/C=C/C=C(C)\C=C\[C@]2(C)C1
active

Queued: C/C(=C\c1csc(C)n1)[C@@H]1C[C@@H]2O[C@]2(C)CCC[C@H](C)[C@H](O)[C@@H](C)C(=O)C(C)(C)[C@@H](O)CC(=O)N1
active

----------
- Tested on: HOP-62 NSCLC
- Experiment description: NCI tumour cell line growth inhibition, 48 h
Below, each entry is listed with its recorded GI50.

The following molecules have reported results that may help.
COC(=O)C(C)NP(=O)(OCc1cccc(Cn2cnc3c(N)ncnc32)c1)Oc1ccccc1 (centres undefined) : > 100 µM
Cn1cc(-c2ccc3c(c2)ncn3-c2cc(NS(=O)(=O)C3CC3)cc(-c3ccc(F)cc3F)c2)cn1 : 14.1 µM

Next:
Which measured GI50 value corresponds to CCOC(=O)C#Cc1c(C(=O)OCC)nnn1[C@@H]1O[C@H](COC)[C@@H](OC)[C@H]1OC ?
25.7 µM

----------
- System: NCI-H460 lung
- Experiment description: NCI tumour cell line growth inhibition, 48 h
Readout kind: TGI

The following molecules have reported results that may help.
CN(Cc1cccc2ccsc12)/N=C\c1ccc(Cl)cc1 : > 100 µM
N/C(=N\N=C\c1nc2ccccc2o1)c1cnccn1 : > 100 µM
O=C1NC(=NCc2cccs2)O/C1=C\c1ccc2ncccc2c1 : > 25 µM
O=S(=O)(O)C(c1ccccc1)C(O)c1ccccc1 (stereo unspecified) : > 100 µM
COC(=O)c1c(C)cccc1C1CN=NC12Cc1cc(C)c(C)cc1C2=O (stereo unspecified) : > 100 µM

Next:
Which measured TGI value corresponds to C=C1CC[C@@H]2[C@](C)(COC(=O)CCC(=O)OC)CCC[C@@]2(C)[C@@H]1CCC1=CC(=O)OC1 ?
> 100 µM

----------
Below, each entry is listed with its recorded TGI.
- Tested on: HOP-92 NSCLC
- Experiment description: NCI tumour cell line growth inhibition, 48 h

The following compounds have reported results that may help.
CC(C)=CCC[C@@H](C)C1=C(N)C(O)=C(C)C(=O)C1=O : > 75 µM
COc1ccc(OC/C(N)=N/NC(=O)c2ccncc2)cc1 : > 100 µM
CCOC(OCC)(OCC)C(Br)CC (stereo not drawn) : > 100 µM
CC(C)C(=O)Cc1ccc2ccccc2n1 : > 100 µM
OCc1ccc(N2CCc3ccc(F)cc3C2)cc1Cl : 0.889 µM

Which measured TGI value corresponds to Cc1cccc(C)c1NC(=O)C(=O)CC(=O)c1sc(Nc2c(C)cccc2C)nc1C ?
> 100 µM

Queued: FC(F)(F)c1cccc(CNC2CCN(CCc3ccccc3)CC2)c1
47.1 µM

Queued: O=c1c2ccccc2nc2n1CCc1c-2[nH]c2ccccc12
31 µM

----------
- Test system: DU-145 prostate
- Experiment description: NCI tumour cell line growth inhibition, 48 h
Readout kind: GI50

The following compounds have reported results that may help.
COc1ccc(-c2c(Nc3ccccn3)nc3c(C4=CCCCC4)c(-c4ccccc4)[nH]n3c2=O)cc1 : 3.62 µM
CC(C)c1ccc2c(c1)CCC1C2CCCC1(C)NCc1ccccc1 (stereo unspecified) : 8.61 µM
O=C1C[C@@H]2OCC=C3C[N+]4([O-])CC[C@]56c7ccccc7N1[C@H]5[C@H]2[C@H]3C[C@@H]64 (stereo partly specified) : > 100 µM

Field: GI50 (DU-145 prostate). Entry: COc1cc(/C=C/c2cc(/C=C/c3ccc(O)c(OC)c3)n(C(=O)Nc3ccc(C)cc3)n2)ccc1O
0.448 µM

Queued: CN(c1ccccc1)c1c2ccccc2nc2[nH]c3ccccc3c12
1.44 µM

Queued: COc1nc(N)nc2nc[nH]c12
720 µM

----------
- System: MDA-MB-435
- Experiment description: NCI tumour cell line growth inhibition, 48 h
Below, each entry is listed with its recorded TGI.
The figure you give is taken to be in µM; do not add the unit.

The following compounds have reported results that may help.
Nc1nccc(NCC2(CO)CC(CCc3ccccc3)C2)n1 (centres undefined) : 28.7
COc1cc(NC(=O)COc2ccccc2)c(C(N)=O)cc1OC : 0.875
C=C(C)c1nc(Oc2ccccc2)nc(Oc2ccccc2)n1 : 22.3

Next:
Field: TGI (MDA-MB-435). Entry: CCCCCCCCCCCCOC1C(C(COC2OC(C(O)CO)C3OC(C)(C)OC23)OC(=O)Nc2ccccc2)OC2OC(C)(C)OC21 (centres undefined)
21.6

----------
Below, each entry is listed with its recorded TGI.
- Tested on: KM12 colon
- Experiment description: NCI tumour cell line growth inhibition, 48 h

The following molecules have reported results that may help.
COc1ccc(OC)c(/C=C2/C(=O)N=C(NC(C)=O)N2C)c1 : > 100 µM
CCOc1ccc(OP2(=O)NC(=O)C=C(C)N2)cc1 (stereo not given) : > 100 µM
C=CCN(CC=C)Cc1c[nH]c2ccccc12 : > 100 µM
O=C1C[C@@H]2OCC=C3C[N+]4([O-])CC[C@]56c7ccccc7N1[C@H]5[C@H]2[C@H]3C[C@@H]64 (stereo not given in full) : > 100 µM
Cc1nc2ccccc2n1Cc1nnc(-c2ccccc2)o1 : > 100 µM
CC(=O)Nc1ccc2c(c1)C(=O)c1ccccc1-2 : > 100 µM

Which measured TGI value corresponds to Clc1ccc(C(OCn2ccnc2)c2nc3ccccc3[nH]2)c(Cl)c1 (stereo not given) ?
> 100 µM

Queued: O=S(=O)(Nc1ccccc1)c1ccc(C2CC3(Cl)C(Cl)=C(Cl)C2(Cl)C3(Cl)Cl)cc1 (stereo not given)
4.12 µM

Queued: N/C(=N\N=C\c1nc2ccccc2o1)c1cnccn1
> 100 µM

Queued: O=c1[nH]c2ccccc2c2oc3ccccc3c12
> 100 µM

Queued: CCc1nc(N)nc(N)c1-c1ccc(N2CCOCC2)c(N=[N+]=[N-])c1
> 100 µM

Queued: CC(C)(C)n1c(=O)n2c(-c3ccccc3)c(-c3ccccc3)n2c1=O
> 100 µM

Queued: Cc1ccccc1NC(=O)C1C(=O)N(c2ccccc2C)C(=O)/C1=N\NC(N)=O (stereo not given)
> 100 µM

Queued: Cc1ccc2c(c1C)CC1(Cc3ccc(C)c(C)c3C1=O)C2=O (stereo not given)
> 100 µM

Queued: C#CCCCCCC(=O)N[C@H]1C=C[C@@H]2/C=C(C)/C=C/[C@@H](C)[C@H]([C@H](C)[C@H](O)[C@@H](C)NC(C)=O)OC(=O)/C=C/C=C(C)\C=C\[C@]2(C)C1
> 40 µM

Queued: Cc1cc(C=O)c2c(=O)c3c(O)ccc(/C=C/C(C)C)c3oc2c1
> 100 µM

Queued: N#CC1=C(N)Oc2c(ccc3ccccc23)C1c1cc2ccccc2n2nnnc12 (stereo not given)
> 100 µM

Queued: ON1CCc2c([nH]c3ccccc23)C1c1ccc(Cl)cc1 (stereo not given)
92.9 µM

Queued: CCC12C=C(C(=O)OC)N3c4ccccc4C4CCN(CCC1)C2C43 (stereo not given)
> 100 µM

Queued: CC1(C)CC2=NO[Se]3=C2C(=NO3)C1
13.8 µM

Queued: CC1=C(C(=O)NNC(=O)C[N+](C)(C)C)CC(C(=O)NNC(=O)C[N+](C)(C)C)=C(C)N1
> 100 µM

Queued: OCc1ccc(N2CCc3ccc(F)cc3C2)cc1Cl
26 µM

Queued: O=C(/C=C/c1ccccc1)CCN1CCCCC1
> 100 µM

Queued: CN1CCN(C(=O)/C=C/c2ccc([N+](=O)[O-])o2)CC1
> 100 µM

Queued: N#CC1(CCCCl)CCCCC1
> 100 µM

Ref: PubChem BioAssay (NCI)
